Kindly supply the reported response values for the records listed here.
B1: GST-tagged ELMO1-RBD (residues 1-113), wild-type [human] / RhoG (residues 1-184) [human] (parent complex)
chain 1: MPPPADIVKVAIEWPGAYPKLMEIDQKKPLSAIIKEVCDGWSLANHEYFALQHADSSNFYITEKNRNEIKNGTILRLTTSPAQNAQQLHERIQSSSMDAKLEALKDLASLSRD
chain 2: not shown

Variants of: B1
Assay: SPR; read at the highest RhoG concentration, about 35 µM; RhoG in the active GTPγS-bound form; read off a plot

Return value of response for input chain 1 E13A , no commentary.
~46%

Write down response measured for item chain 1 L21A
~18%

Determine its reported response: chain 1 K20E
~64%

Item chain 1 N58A : provide response
~78%

Determine its reported response: chain 1 Y18A
~59%

Read the entry chain 1 K9A and write its reported response.
~0%

src = paper PMC10023680
